Organism: Canis familiaris
MEASUREMENT_PROTOCOL: Relative salidiuretic efficacy was scored in dog; moderate
Assay type: functional, organism-based
SETTINGS: Canis lupus familiaris; Urine
PROPERTY_NAME: Relative salidiuretic activity

CCC1(C2CCCC2)Cc2cc(OCC(=O)O)c(Cl)c(Cl)c2C1=O (racemic)
moderate
CC1(C2CCCC2)Cc2cc(OCC(=O)O)c(Cl)c(Cl)c2C1=O (racemic)
marked
O=C(O)COc1cc2c(c(Cl)c1Cl)C(=O)C(C1CCCC1)C2 (racemic)
moderate
C[C@]1(C2CCCC2)Cc2cc(OCC(=O)O)c(Cl)c(Cl)c2C1=O
marked

* * *

Organism: Rattus norvegicus
MEASUREMENT_PROTOCOL: Relative salidiuretic efficacy was scored in Rat; weak
Type: functional, organism-based
SETTINGS: Urine
PROPERTY_NAME: Relative salidiuretic activity

CCCCC1(C2CCCC2)Cc2cc(OCC(=O)O)c(Cl)c(Cl)c2C1=O (racemic)
weak
CCCC[C@]1(C2CCCC2)Cc2cc(OCC(=O)O)c(Cl)c(Cl)c2C1=O
weak
CCCC[C@@]1(C2CCCC2)Cc2cc(OCC(=O)O)c(Cl)c(Cl)c2C1=O
weak

* * *

Species: Canis familiaris
MEASUREMENT_PROTOCOL: Relative salidiuretic efficacy was scored in dog; Marginal
Format: functional, organism-based
SETTINGS: Canis lupus familiaris; Urine
Active and inactive are the calls of the source. The calls are words filed in the database; no cut-off is given here.
PROPERTY_NAME: Relative salidiuretic activity

CC1(Cc2ccccc2)Cc2cc(OCC(=O)O)c(Cl)c(Cl)c2C1=O (racemic)
Marginal
C[C@@]1(C2CCCC2)Cc2cc(OCCCC(=O)O)c(Cl)c(Cl)c2C1=O
inactive
O=C(O)COc1cc2c(c(Cl)c1Cl)C(=O)C(CC1CCCC1)C2 (racemic)
Marginal
CC1(C2CCCC2)Cc2cc(OCCCC(=O)O)c(Cl)c(Cl)c2C1=O (racemic)
inactive

* * *

MEASUREMENT_PROTOCOL: Dissociation constant (pKa) (determined in 30% EtOH)
Assay type: physicochemical
Give pKa for every item shown.
Numbers only.

Quick batch: pKa for everything below.
1. CCCC[C@]1(C2CCCC2)Cc2cc(OCCCC(=O)O)c(Cl)c(Cl)c2C1=O
2. CCCC[C@@]1(C2CCCC2)Cc2cc(OCC(=O)O)c(Cl)c(Cl)c2C1=O
3. CCCCC1(C2CCCC2)Cc2cc(OCC(=O)O)c(Cl)c(Cl)c2C1=O (racemic)
4. CC1(Cc2ccccc2)Cc2cc(OCC(=O)O)c(Cl)c(Cl)c2C1=O (racemic)
5. CC1(Cc2ccccc2)Cc2cc(OCCCC(=O)O)c(Cl)c(Cl)c2C1=O (racemic)
6. CCCC1(C2CCCC2)Cc2cc(OCCCC(=O)O)c(Cl)c(Cl)c2C1=O (racemic)
7. CC1(C2CCCC2)Cc2cc(OCc3ccc(C(=O)O)cc3)c(Cl)c(Cl)c2C1=O (racemic)
8. CCCCC1(C2CCCC2)Cc2cc(OCCCC(=O)O)c(Cl)c(Cl)c2C1=O (racemic)

1: 4.4; 2: 3.9; 3: 3.9; 4: 3.8; 5: 6.3; 6: 4.1; 7: 6.2; 8: 4.4

Quick batch: pKa for everything below.
1. CC1(C2CCCC2)Cc2cc(OCC(=O)O)c(Cl)c(Cl)c2C1=O (racemic)
2. C[C@]1(C2CCCC2)Cc2cc(OCC(=O)O)c(Cl)c(Cl)c2C1=O
3. CCCC[C@]1(C2CCCC2)Cc2cc(OCC(=O)O)c(Cl)c(Cl)c2C1=O
4. C[C@@]1(C2CCCC2)Cc2cc(OCC(=O)O)c(Cl)c(Cl)c2C1=O

[3.9, 3.9, 3.9, 3.9]

Quick batch: pKa for everything below.
1. O=C(O)COc1cc2c(c(Cl)c1Cl)C(=O)C(CC1CCCC1)C2 (racemic)
2. CC1(c2ccccc2)Cc2cc(OCC(=O)O)c(Cl)c(Cl)c2C1=O (racemic)
3. CC(C)(Oc1cc2c(c(Cl)c1Cl)C(=O)C(C)(C1CCCC1)C2)C(=O)O (racemic)
4. O=C(O)COc1cc2c(c(Cl)c1Cl)C(=O)C(C1CCCC1)C2 (racemic)
5. CC1(C2CCCC2)Cc2cc(OC3(C(=O)O)CCC3)c(Cl)c(Cl)c2C1=O (racemic)
6. CC1(C2CCCC2)Cc2cc(OCCCC(=O)O)c(Cl)c(Cl)c2C1=O (racemic)

3.8
3.7
3.7
3.9
3.8
5.7

Look at this compound and give its reported pKa. CC1(C2CCCC2)Cc2cc(OC/C=C/CC(=O)O)c(Cl)c(Cl)c2C1=O (racemic)
5.1

* * *

Give log10 IC50 for every item shown.
Species on record: Felis catus
MEASUREMENT_PROTOCOL: In vitro inhibition of HCO3- stimulated swelling in cat cerebrocortical tissue slice
Type: functional
SETTINGS: read-out: I 50
Units before log transform: nM; reported quantity: IC50; transform: log10.

The examples below pair each entry with its known result.
CC1(C2CCCC2)Cc2cc(OCC(=O)O)c(Cl)c(Cl)c2C1=O (racemic)
2.30
CCC1(C2CCCC2)Cc2cc(OCC(=O)O)c(Cl)c(Cl)c2C1=O (racemic)
0.00
C[C@]1(C2CCCC2)Cc2cc(OCC(=O)O)c(Cl)c(Cl)c2C1=O
2.00
CC1(c2ccccc2)Cc2cc(OCC(=O)O)c(Cl)c(Cl)c2C1=O (racemic) [INDACRINONE]
3.00
O=C(O)COc1cc2c(c(Cl)c1Cl)C(=O)C(CC1CCCC1)C2 (racemic)
1.00
C[C@@]1(C2CCCC2)Cc2cc(OCCCC(=O)O)c(Cl)c(Cl)c2C1=O
2.40
CCCCC1(C2CCCC2)Cc2cc(OCC(=O)O)c(Cl)c(Cl)c2C1=O (racemic)
0.48
CCCC[C@@]1(C2CCCC2)Cc2cc(OCC(=O)O)c(Cl)c(Cl)c2C1=O
4.70

Quick batch: log10 IC50 for everything below.
1. O=C(O)COc1cc2c(c(Cl)c1Cl)C(=O)C(C1CCCC1)C2 (racemic)
2. CCCCC1(C2CCCC2)Cc2cc(OCCCC(=O)O)c(Cl)c(Cl)c2C1=O (racemic)
3. CCCC[C@]1(C2CCCC2)Cc2cc(OCCCC(=O)O)c(Cl)c(Cl)c2C1=O
4. CCCC[C@]1(C2CCCC2)Cc2cc(OCC(=O)O)c(Cl)c(Cl)c2C1=O

4.00
0.60
3.00
-0.52

* * *

Give IC50 for every item shown.
Species: Felis catus
MEASUREMENT_PROTOCOL: In vitro inhibition of HCO3- stimulated swelling in cat cerebrocortical tissue slice
Assay type: functional
SETTINGS: read-out: I 50

The examples below pair each entry with its known result.
CC1(C2CCCC2)Cc2cc(OCc3ccc(C(=O)O)cc3)c(Cl)c(Cl)c2C1=O (racemic)
> 10 µM
CCC1(C2CCCC2)Cc2cc(OCCCC(=O)O)c(Cl)c(Cl)c2C1=O (racemic)
> 0.01 µM

API: the following record is the query input.
Look at this compound and give its reported IC50. CC(C)(Oc1cc2c(c(Cl)c1Cl)C(=O)C(C)(C1CCCC1)C2)C(=O)O (racemic)
> 100 µM
